target.desc: Glutamate NMDA receptor; Grin1/Grin2b (Rattus norvegicus) (UniProt P35439+Q00960)
procedure.text: Antagonist activity at rat recombinant NR1/NR2B receptor expressed in Xenopus laevis oocytes assessed as inhibition of glutamate/glycine-induced current at 3 uM by two electrode voltage clamp method relative to control
Format: functional, cell-based
condition.info: Oocyte
measurement.label: % response

The measured % response associated with "CS(=O)(=O)Nc1ccc(OCCN2CCN(c3ccc(Cl)c(Cl)c3)C2=O)cc1" reads 20%

Record "CS(=O)(=O)Nc1ccc(OCC(=O)NCCSc2ccc(Cl)c(Cl)c2)cc1" , field % response: 21%

Measured % response, "CS(=O)(=O)Nc1ccc(CCC(=O)NN2C(=O)c3cc(Cl)c(Cl)cc3C2=O)cc1" : 90%

Briefly, % response measured for "CS(=O)(=O)Nc1ccc(CCC(=O)N2CCN(c3ccc(Cl)c(Cl)c3)CC2)cc1" : 48%
